System: S1P1/EDG1 (Homo sapiens, UniProt P21453)
Sequence (P21453 whole entry): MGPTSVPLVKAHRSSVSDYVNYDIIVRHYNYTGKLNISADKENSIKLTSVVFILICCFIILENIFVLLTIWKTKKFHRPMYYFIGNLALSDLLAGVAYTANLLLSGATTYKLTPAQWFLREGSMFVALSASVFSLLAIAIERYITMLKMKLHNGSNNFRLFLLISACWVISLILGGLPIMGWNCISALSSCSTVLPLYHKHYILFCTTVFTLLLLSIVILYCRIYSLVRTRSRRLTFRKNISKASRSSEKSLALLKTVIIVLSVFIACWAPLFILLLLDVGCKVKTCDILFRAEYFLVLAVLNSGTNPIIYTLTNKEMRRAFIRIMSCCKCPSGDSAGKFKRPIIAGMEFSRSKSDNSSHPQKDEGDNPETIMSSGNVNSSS
Experiment summary: S1P1 CRE-bla CHOK1 reporter assay (inhibition of Forskolin induced cAMP)
Assay type: cell-based
Run conditions: agonist activity range, Table 2; read-out: S1P1 ACTIVITY
Test readout: EC50

[[record]]
compound = "CC(C)Oc1ccc(-c2ncc(-c3cccc4c3CCC4NCc3ncc[nH]3)s2)cc1C#N (stereo in doubt)"
result = "0.5 to 5 nM"

[[record]]
compound = "CC(C)Oc1ccc(-c2nnc(-c3cccc4c3CC[C@H]4NC(=O)CO)s2)cc1C#N"
result = "0.05 to 0.5 nM"

[[record]]
compound = "CC(C)Oc1ccc(-c2ncc(-c3cccc4c3CC[C@@H]4NCC(=O)N3CCCC3)s2)cc1C#N [Compound 101]"
result = "> 5 nM"

[[record]]
compound = "CC(C)Oc1ccc(-c2ncc(-c3cccc4c3CC[C@@H]4NS(=O)(=O)CCN3CCC[C@H](O)C3)s2)cc1C#N [Compound 142]"
result = "0.5 to 5 nM"

[[record]]
compound = "CC(C)Oc1ccc(-c2ncc(-c3cccc4c3CC[C@@H]4NS(=O)(=O)CCN3CCC(O)CC3)s2)cc1C#N [Compound 145]"
result = "> 5 nM"


stdin: Fill in: EC50 of `CC(=O)N[C@H]1CCc2c(-c3nnc(-c4ccc(OC(C)C)c(C#N)c4)s3)cccc21` is ___
stdout: 0.05 to 0.5 nM

stdin: Fill in: EC50 of CC(C)Oc1ccc(-c2ncc(-c3cccc4c3CC[C@@H]4NS(=O)(=O)CCC(=O)O)s2)cc1C#N [Compound 161] is ___
stdout: 0.05 to 0.5 nM

====

System: S1P1/EDG1 (Homo sapiens)
Experiment summary: S1P1 CRE-bla CHOK1 reporter assay (inhibition of Forskolin induced cAMP)
Type: cell-based
Run conditions: agonist activity range, Table 2; read-out: S1P1 ACTIVITY
Experimental: A mammalian expression plasmid containing S1P1/EDG1 cloned into pcDNA3.1 was purchased from Missouri S&T cDNA Resource Centre. […] Cells were seeded into 384-well black wall/clear bottom plates at 10^4 cells/well/19.5 μl assay media (DMEM-phenol free, 0.5% charcoal/dextran stripped serum, 2 mM glutamine, 0.1 mM NEAA, 1 mM Na-Pyruvate, 25 mM Hepes) and incubated for 18 hrs at 37° C. in 5% CO2. […] Plates were read at Ex:410/Em:458 and Ex:410/Em:522, and the response ratio determined. […]
Test readout: EC50

Recorded results for 2 compounds are shown here.
[[record]]
compound = "CC(C)Oc1ccc(-c2ncc(-c3cccc4c3CC[C@@H]4NS(=O)(=O)CCO)s2)cc1C#N"
system = "S1P1/EDG1 (Homo sapiens)"
result = "0.5 to 5 nM"

[[record]]
compound = "CC(C)Oc1ccc(-c2nnc(-c3cccc4c3CC[C@@H]4NC(=O)CN(C)C)s2)cc1C#N"
system = "S1P1/EDG1 (Homo sapiens)"
result = "0.5 to 5 nM"


stdin: Fill in: EC50 of `CC(C)Oc1ccc(-c2nnc(-c3cccc4c3CC[C@@H]4NCCS(C)(=O)=O)s2)cc1C#N` is ___
stdout: 0.05 to 0.5 nM

stdin: Fill in: EC50 of CC(C)Oc1ccc(-c2nnc(-c3cccc4c3CC[C@@H]4NS(=O)(=O)CCN3CCC(O)C3)s2)cc1C#N (stereo in doubt) is ___
stdout: 0.5 to 5 nM
